Cited source for all entries: BindingDB's records for doi:10.1016/0960-894X(94)00458-R

Target Or Test System: cGMP-dependent protein kinase 1 (Bos taurus, UniProt P00516)
Sequence (P00516 whole entry): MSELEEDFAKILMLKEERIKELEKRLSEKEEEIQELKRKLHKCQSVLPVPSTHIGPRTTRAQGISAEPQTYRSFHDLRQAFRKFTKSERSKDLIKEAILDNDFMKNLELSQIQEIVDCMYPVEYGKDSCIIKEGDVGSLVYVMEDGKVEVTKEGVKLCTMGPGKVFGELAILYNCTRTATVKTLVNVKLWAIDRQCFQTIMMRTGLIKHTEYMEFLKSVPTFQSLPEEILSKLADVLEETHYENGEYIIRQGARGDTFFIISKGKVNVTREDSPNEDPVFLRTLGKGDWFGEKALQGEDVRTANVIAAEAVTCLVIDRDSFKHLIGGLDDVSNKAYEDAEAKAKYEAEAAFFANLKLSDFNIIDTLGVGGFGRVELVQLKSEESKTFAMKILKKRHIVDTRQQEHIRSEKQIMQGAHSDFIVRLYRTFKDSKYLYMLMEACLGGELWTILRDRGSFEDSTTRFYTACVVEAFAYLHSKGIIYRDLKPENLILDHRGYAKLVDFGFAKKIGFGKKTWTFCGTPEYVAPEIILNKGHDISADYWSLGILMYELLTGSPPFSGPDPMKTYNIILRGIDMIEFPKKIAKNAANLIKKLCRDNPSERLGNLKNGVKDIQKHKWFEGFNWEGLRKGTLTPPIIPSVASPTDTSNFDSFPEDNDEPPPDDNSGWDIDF
Assay Method Text: cGPK assay
Readout Name: IC50 (µM)

(I) COc1ccc2c(c1)c1c3c(c4c5ccccc5n(CC(O)CN(C)C)c4c1n2C)CNC3=O (configuration not stated)
(II) COc1ccc2c(c1)c1c3c(c4c5ccccc5n(CCCC#N)c4c1n2C)C(=O)NC3=O
Please indicate which item has the smaller measured IC50: I versus II To answer, give the label that identifies your chosen option.
II

###

Assay Method Text: The activity of cGPK, activated by cGMP, is measured by its ability to transfer phosphate from [gamma-32P]ATP to histone.
pIC50: −log10 of the molar value.
Readout Name: pIC50

Reference set, count: 3
Query: pIC50; subject: COc1ccc2c(c1)c1c3c(c4c5ccccc5n(C)c4c1n2CCCC#N)C(=O)NC3=O
7.49

Query: pIC50; subject: COc1ccc2c(c1)c1c3c(c4c5ccccc5n(CCC#N)c4c1n2C)C(=O)NC3=O
7.31

Query: pIC50; subject: CN(C)CC(O)Cn1c2ccccc2c2c3c(c4c5ccccc5n(C)c4c21)C(=O)NC3 (stereo not drawn)
5.26

(P) Cn1c2ccccc2c2c3c(c4c5ccccc5n(CCCN)c4c21)CNC3=O
(Q) Cn1c2ccccc2c2c3c(c4c5ccccc5n(CCC#N)c4c21)CNC3=O
(R) CN(C)CC(O)Cn1c2ccccc2c2c3c(c4c5ccccc5n(C)c4c21)C(=O)NC3=O (stereo not drawn)
(S) COc1ccc2[nH]c3c(c4c(c5c6cc(OC)ccc6n(CCCN(C)C)c35)CNC4=O)c2c1
(T) COc1ccc2c(c1)c1c3c(c4c5cc(OC)ccc5n(CCC#N)c4c1n2C)CNC3=O
Order the records by pIC50, with each subsequent value no larger than the one before. // ordering of labels required in reply
P, R, S, T, Q
(P: 7.74, R: 6.92, S: 6.66, T: 5.80, Q: 5.24)

###

Target Or Test System: UniProt:P11799
Sequence (P11799 whole entry): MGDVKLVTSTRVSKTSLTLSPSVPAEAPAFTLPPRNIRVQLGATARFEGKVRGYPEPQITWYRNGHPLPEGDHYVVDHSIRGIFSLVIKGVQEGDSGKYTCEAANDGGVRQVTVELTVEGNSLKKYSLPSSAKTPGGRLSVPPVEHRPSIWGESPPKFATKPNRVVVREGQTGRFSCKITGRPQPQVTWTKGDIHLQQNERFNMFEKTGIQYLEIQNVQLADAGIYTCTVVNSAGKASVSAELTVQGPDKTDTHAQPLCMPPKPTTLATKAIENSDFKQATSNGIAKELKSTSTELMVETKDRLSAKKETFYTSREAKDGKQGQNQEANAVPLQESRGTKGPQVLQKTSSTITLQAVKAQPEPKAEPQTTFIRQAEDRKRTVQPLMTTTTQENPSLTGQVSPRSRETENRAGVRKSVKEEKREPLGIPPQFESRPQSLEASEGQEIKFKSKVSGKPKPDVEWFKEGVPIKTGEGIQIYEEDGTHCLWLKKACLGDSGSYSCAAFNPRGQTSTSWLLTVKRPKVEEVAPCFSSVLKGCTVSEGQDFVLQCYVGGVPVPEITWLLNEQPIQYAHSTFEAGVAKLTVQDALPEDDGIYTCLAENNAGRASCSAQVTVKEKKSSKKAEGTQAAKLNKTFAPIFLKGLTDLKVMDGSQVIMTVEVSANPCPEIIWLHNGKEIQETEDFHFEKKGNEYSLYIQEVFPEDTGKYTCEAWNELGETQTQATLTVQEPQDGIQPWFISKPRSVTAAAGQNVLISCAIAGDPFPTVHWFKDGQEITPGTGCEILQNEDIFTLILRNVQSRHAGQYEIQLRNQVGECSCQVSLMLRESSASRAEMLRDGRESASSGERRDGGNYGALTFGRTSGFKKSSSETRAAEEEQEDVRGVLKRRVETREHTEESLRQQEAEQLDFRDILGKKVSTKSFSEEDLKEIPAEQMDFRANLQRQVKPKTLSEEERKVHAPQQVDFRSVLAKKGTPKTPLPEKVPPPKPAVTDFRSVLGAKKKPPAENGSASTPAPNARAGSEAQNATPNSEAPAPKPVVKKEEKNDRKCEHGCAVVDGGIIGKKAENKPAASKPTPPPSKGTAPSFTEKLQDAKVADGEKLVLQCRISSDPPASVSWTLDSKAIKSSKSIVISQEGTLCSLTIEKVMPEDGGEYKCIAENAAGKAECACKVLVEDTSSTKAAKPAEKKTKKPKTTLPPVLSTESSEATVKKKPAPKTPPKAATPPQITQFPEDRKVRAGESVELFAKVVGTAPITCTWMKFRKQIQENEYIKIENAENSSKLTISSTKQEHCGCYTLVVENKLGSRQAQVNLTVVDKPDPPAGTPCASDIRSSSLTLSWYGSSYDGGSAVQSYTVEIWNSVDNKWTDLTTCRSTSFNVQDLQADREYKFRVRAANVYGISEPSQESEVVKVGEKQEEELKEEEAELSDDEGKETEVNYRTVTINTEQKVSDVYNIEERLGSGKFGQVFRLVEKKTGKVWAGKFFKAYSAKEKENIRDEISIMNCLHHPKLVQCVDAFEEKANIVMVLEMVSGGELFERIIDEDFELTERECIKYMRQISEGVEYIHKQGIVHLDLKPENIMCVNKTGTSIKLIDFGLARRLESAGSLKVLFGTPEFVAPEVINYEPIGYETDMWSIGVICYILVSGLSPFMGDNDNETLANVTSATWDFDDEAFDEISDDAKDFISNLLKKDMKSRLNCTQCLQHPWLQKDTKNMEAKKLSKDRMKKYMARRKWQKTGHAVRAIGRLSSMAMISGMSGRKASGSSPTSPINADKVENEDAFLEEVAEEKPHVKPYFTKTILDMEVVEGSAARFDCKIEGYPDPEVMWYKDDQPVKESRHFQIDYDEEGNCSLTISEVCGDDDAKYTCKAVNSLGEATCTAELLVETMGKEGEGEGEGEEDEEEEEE
pIC50: −log10 of the molar value.
Readout Name: pIC50

Query: pIC50; subject: CN(C)CCCn1c2ccccc2c2c3c(c4c5ccccc5[nH]c4c21)C(=O)NC3
6.41

(I) COc1ccc2c(c1)c1c3c(c4c5cc(OC)ccc5n(CCC#N)c4c1n2C)CNC3=O
(II) COc1ccc2[nH]c3c(c4c(c5c6cc(OC)ccc6n(CCCN(C)C)c35)CNC4=O)c2c1
Please indicate which item has the smaller measured pIC50: I versus II To answer, give the label that identifies your chosen option.
I
(I: 5.80, II: 6.66)

(a) CN(C)CCCn1c2ccc(O)cc2c2c3c(c4c5cc(O)ccc5[nH]c4c21)C(=O)NC3
(b) COc1ccc2c(c1)c1c3c(c4c5ccccc5n(CC(O)CN(C)C)c4c1n2C)CNC3=O (stereo unspecified)
(c) COc1ccc2c(c1)c1c3c(c4c5ccccc5n(CC(O)CN(C)C)c4c1n2C)C(=O)NC3=O (stereo unspecified)
Arrange items by their pIC50 values in increasing order. // ordering of labels required in reply
b, c, a

###

pIC50: −log10 of the molar value.
Entries with reported pIC50 on Protein kinase C beta type (Rattus norvegicus)
Sequence (P68403 whole entry): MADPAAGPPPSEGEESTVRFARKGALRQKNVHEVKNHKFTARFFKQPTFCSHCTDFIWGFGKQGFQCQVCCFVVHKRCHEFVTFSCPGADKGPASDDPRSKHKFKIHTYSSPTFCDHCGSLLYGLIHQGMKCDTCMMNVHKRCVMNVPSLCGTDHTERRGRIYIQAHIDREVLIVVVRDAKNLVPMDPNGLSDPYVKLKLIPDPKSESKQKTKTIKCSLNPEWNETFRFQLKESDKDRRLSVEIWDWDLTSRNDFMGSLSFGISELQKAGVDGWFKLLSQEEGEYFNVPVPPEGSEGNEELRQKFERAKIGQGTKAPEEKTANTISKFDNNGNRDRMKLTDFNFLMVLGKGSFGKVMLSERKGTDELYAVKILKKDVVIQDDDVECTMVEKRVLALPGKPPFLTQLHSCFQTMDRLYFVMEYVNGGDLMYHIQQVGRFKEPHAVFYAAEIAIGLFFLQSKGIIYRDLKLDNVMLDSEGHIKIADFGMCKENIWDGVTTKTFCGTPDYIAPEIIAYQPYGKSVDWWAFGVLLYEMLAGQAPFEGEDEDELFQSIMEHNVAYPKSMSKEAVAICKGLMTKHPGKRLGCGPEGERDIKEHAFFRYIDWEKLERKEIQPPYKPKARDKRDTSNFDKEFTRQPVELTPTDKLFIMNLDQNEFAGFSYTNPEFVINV
Readout Name: pIC50

Reference set, count: 2
What is its pIC50 for Protein kinase C beta type (Rattus norvegicus)? Entry: COc1ccc2c(c1)c1c3c(c4c5ccccc5n(CCCC#N)c4c1n2C)C(=O)NC3=O
8.30

What is its pIC50 for Protein kinase C beta type (Rattus norvegicus)? Entry: COc1ccc2c(c1)c1c3c(c4c5ccccc5n(C)c4c1n2CCC#N)C(=O)NC3=O
7.80

(I) COc1ccc2c(c1)c1c3c(c4c5ccccc5n(CC(O)CN(C)C)c4c1n2C)C(=O)NC3=O (centres undefined)
(II) COc1ccc2c(c1)c1c3c(c4c5ccccc5n(CCC#N)c4c1n2C)C(=O)NC3=O
Just curious, which one has the larger pIC50 reading, I or II ? To answer, give the label that identifies your chosen option.
II
(II: 8.70, I: 8.40)

###

Target Or Test System: Tyrosine-protein phosphatase non-receptor type 2 (Mus musculus)
Assay Method Text: TPK assay
pIC50: −log10 of the molar value.
Below is a list of entries, each paired with its recorded pIC50 value.

Reference set, count: 4
What is its pIC50 for Tyrosine-protein phosphatase non-receptor type 2 (Mus musculus)? Entry: COc1ccc2c(c1)c1c3c(c4c5cc(OC)ccc5n(CCC#N)c4c1n2C)CNC3=O
< 5.00

What is its pIC50 for Tyrosine-protein phosphatase non-receptor type 2 (Mus musculus)? Entry: COc1ccc2c(c1)c1c3c(c4c5ccccc5n(CC(O)CN(C)C)c4c1n2C)CNC3=O (stereo not given)
< 5.00

What is its pIC50 for Tyrosine-protein phosphatase non-receptor type 2 (Mus musculus)? Entry: Cn1c2ccccc2c2c3c(c4c5ccccc5n(CCC#N)c4c21)CNC3=O
< 5.00

What is its pIC50 for Tyrosine-protein phosphatase non-receptor type 2 (Mus musculus)? Entry: COc1ccc2c(c1)c1c3c(c4c5ccccc5n(CCC#N)c4c1n2C)C(=O)NC3=O
< 5.00

Here is the next item to consider.
What is its pIC50 for Tyrosine-protein phosphatase non-receptor type 2 (Mus musculus)? Entry: CN(C)CC(O)Cn1c2ccccc2c2c3c(c4c5ccccc5n(C)c4c21)C(=O)NC3 (stereo not given)
< 4.00
